Where these numbers come from: ChEMBL document CHEMBL1961873

# inhibition values compiled below
- Measured On: Tyrosine-protein kinase HCK (Homo sapiens) (UniProt P08631)
- Sequence (P08631 2-526 limits assumed): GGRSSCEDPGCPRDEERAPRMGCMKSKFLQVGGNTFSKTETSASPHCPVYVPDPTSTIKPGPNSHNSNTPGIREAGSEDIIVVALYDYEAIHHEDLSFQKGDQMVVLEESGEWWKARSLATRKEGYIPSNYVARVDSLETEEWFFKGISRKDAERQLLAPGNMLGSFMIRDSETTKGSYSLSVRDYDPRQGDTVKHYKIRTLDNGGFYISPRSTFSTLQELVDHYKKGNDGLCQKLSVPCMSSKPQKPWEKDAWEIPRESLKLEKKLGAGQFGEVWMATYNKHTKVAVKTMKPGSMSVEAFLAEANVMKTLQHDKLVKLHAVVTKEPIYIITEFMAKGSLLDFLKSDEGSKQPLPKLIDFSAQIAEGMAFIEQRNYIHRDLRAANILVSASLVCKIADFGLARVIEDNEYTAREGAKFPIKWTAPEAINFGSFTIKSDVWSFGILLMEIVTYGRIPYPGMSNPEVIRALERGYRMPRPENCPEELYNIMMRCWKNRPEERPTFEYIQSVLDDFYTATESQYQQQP
- Applied Conditions: at 0.1 µM;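 also: values are mean inhibition of HCK, taken from the GSK_PKIS kinase profiling screen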
Give the number; % is assumed, so skip it.

Example results:
{"columns": ["Compound", "inhibition (%)"],
 "data": [
  ["Nc1nc(-c2ccc3c(c2)C(=Cc2cc(Br)c(O)c(Br)c2)C(=O)N3)cs1", -1.41],
  ["COc1ccccc1Nc1ncc(-c2ccccc2)o1", 9.81],
  ["CCn1c(-c2nonc2N)nc2c(N3CCCC3)nccc21", -0.01],
  ["c1cnn2ncc(-c3ccnc(Nc4ccc5c(c4)OCCO5)n3)c2c1", 6.09]
]}

Which inhibition value belongs to `CC(=O)Nc1cccc(C#Cc2cncnc2Nc2ccc(OCc3cccc(F)c3)c(Cl)c2)n1` ?
-0.02

Which inhibition value belongs to CC1=C(C(=O)Nc2ccc3[nH]ncc3c2)C(c2ccc3ccccc3c2)CC(=O)N1 (stereo unspecified) ?
4.76

Which inhibition value belongs to `NC(=O)c1ccc(-c2nc(-c3ccccn3)c(-c3ccc4c(c3)OCO4)[nH]2)cc1` ?
3.56

Which inhibition value belongs to `COc1cc(C=NNc2ncnc3c2cnn3-c2ccccc2)ccc1O` ?
8.92

Which inhibition value belongs to `COc1ccc(-c2ccncc2)cc1C(N)=O` ?
6.67

Which inhibition value belongs to `CS(=O)(=O)CCNCc1ccc(-c2ccc3ncnc(Nc4ccc(OCc5ccccc5)c(Cl)c4)c3c2)o1` ?
1.16

Which inhibition value belongs to `Cc1cc(O)cc(C)c1/C=C/c1cncc(-c2nn[nH]n2)c1` ?
20.6

Which inhibition value belongs to `Cc1cccc(-c2n[nH]cc2-c2ccc3ncccc3n2)n1` ?
0.57

Which inhibition value belongs to `Nc1ncnc2occ(-c3ccc(NC(=O)Nc4cc(C(F)(F)F)cc(C(F)(F)F)c4)cc3)c12` ?
6.07

Which inhibition value belongs to `COc1cc2ncn(-c3cc(OCc4ccccc4Cl)c(C(N)=O)s3)c2cc1OC` ?
4.09

Which inhibition value belongs to `COC(=O)Nc1nc2cc(Oc3ccc(NC(=O)Nc4cccc(C(=O)O)c4)cc3)ccc2[nH]1` ?
0.97

Which inhibition value belongs to `COc1cc2ncn(-c3cc(O[C@H](C)c4ccccc4Cl)c(C(N)=O)s3)c2cc1OC` ?
11.7
